Exercise: state measured 11b-HSD1 oxidase (activ rem %) 100 uM for each of the compounds provided.
- target-system: recombinant 11β-HSD1 enzyme (Homo sapiens (Human), UniProt P28845)
- Sequence (P28845 whole entry): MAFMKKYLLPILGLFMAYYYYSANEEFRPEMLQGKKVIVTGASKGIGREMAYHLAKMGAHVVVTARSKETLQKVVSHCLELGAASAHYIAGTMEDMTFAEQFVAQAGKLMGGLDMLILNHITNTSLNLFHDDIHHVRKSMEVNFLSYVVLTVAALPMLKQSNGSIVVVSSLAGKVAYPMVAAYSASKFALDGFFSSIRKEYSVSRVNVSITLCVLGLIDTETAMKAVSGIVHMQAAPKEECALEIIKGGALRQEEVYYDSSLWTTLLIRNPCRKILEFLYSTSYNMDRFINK
- assay-remarks: 11β-HSD1 oxidase activity (HTRF Cortisol Kit)
- Type: biochemical
- conditions-used: remaining activity at 100 uM compound
Units required after the number.

smiles: c1ccc(CCc2nc(C34CC5CC(CC(C5)C3)C4)no2)cc1
target-system: recombinant 11β-HSD1 enzyme (Homo sapiens (Human), UniProt P28845)
11b-HSD1 oxidase (activ rem %) 100 uM: 86.20%
//
smiles: Brc1ccc(CCc2nc(C34CC5CC(CC(C5)C3)C4)no2)cc1
target-system: recombinant 11β-HSD1 enzyme (Homo sapiens (Human), UniProt P28845)
11b-HSD1 oxidase (activ rem %) 100 uM: 104.0%
//
smiles: c1cc(CCc2nc(C34CC5CC(CC(C5)C3)C4)no2)ccn1
target-system: recombinant 11β-HSD1 enzyme (Homo sapiens (Human), UniProt P28845)
11b-HSD1 oxidase (activ rem %) 100 uM: 75.3%
//
smiles: CC(C)(C)c1ccc(CCc2nc(C34CC5CC(CC(C5)C3)C4)no2)cc1
target-system: recombinant 11β-HSD1 enzyme (Homo sapiens (Human), UniProt P28845)
11b-HSD1 oxidase (activ rem %) 100 uM: 86.1%
//
smiles: Cc1ccc(CCc2nc(C34CC5CC(CC(C5)C3)C4)no2)cc1
target-system: recombinant 11β-HSD1 enzyme (Homo sapiens (Human), UniProt P28845)
11b-HSD1 oxidase (activ rem %) 100 uM: 95.3%
//
smiles: Clc1ccc(CCc2nc(C34CC5CC(CC(C5)C3)C4)no2)cc1
target-system: recombinant 11β-HSD1 enzyme (Homo sapiens (Human), UniProt P28845)
11b-HSD1 oxidase (activ rem %) 100 uM: 75.4%

List the reported 11b-HSD1 oxidase (activ rem %) 100 uM of each compound below.
1. COc1cccc(CCc2nc(C34CC5CC(CC(C5)C3)C4)no2)c1
2. O=[N+]([O-])c1ccc(CCc2nc(C34CC5CC(CC(C5)C3)C4)no2)cc1
3. Fc1ccc(CCc2nc(C34CC5CC(CC(C5)C3)C4)no2)cc1
4. Oc1ccc(CCc2nc(C34CC5CC(CC(C5)C3)C4)no2)cc1

100.5%
65.4%
77.2%
88.1%

Below are 3 compounds. Give each one its 11b-HSD1 oxidase (activ rem %) 100 uM.
1. Fc1cccc(CCc2nc(C34CC5CC(CC(C5)C3)C4)no2)c1
2. Cc1cccc(CCc2nc(C34CC5CC(CC(C5)C3)C4)no2)c1
3. COc1ccc(CCc2nc(C34CC5CC(CC(C5)C3)C4)no2)cc1

1. 89.8%
2. 89.9%
3. 62.7%
